System: BDF1 mice, P388 leukemia ip, median survival T/C
Assay: NCI In Vivo Anticancer Drug Screen. Data for tumor model P388 Leukemia (intraperitoneal) in B6D2F1 (BDF1) mice
Details: endpoint: median survival time; dose: 12.5 mg/kg/injection; schedule: Q01DX009 (ip); vehicle: Klucel (hydroxypropylcellulose) (HPC)
Toxic doses and inconclusive results are not listed. Rule for the calls: active = survival T/C of 150% or more; inactive = T/C below 125% in these data.
Labels: active, inactive

- compound: "CCCCCCCCOC(=O)c1[nH]cnc1/N=N\\N(C)C"
  classification: "inactive"
- compound: "NC(N)=N/N=C/c1ccc(Cl)c(Cl)c1"
  classification: "inactive"
- compound: "CC1NC(C(=O)O)Cc2cc(O)c(O)cc21 (centres undefined)"
  classification: "inactive"
- compound: "CC(C)Sc1nc(N)nc2nc[nH]c12"
  classification: "inactive"
- compound: "OCc1cnc[nH]1"
  classification: "inactive"
- compound: "O=C(CC(=O)C(F)(F)C(F)(F)C(F)(F)F)c1csc2ccccc12"
  classification: "inactive"
- compound: "O=NN(CCCl)C(=O)NC1CCCCC1"
  classification: "active"
- compound: "CN(C)C=Nc1ccc2c3c(cccc13)CC2"
  classification: "inactive"
- compound: "COc1ccc2c(Cc3ccccc3)cncc2c1O"
  classification: "inactive"
- compound: "CCC(C)n1ncc2c(N(C)C)ncnc21 (centres undefined)"
  classification: "inactive"
- compound: "Clc1ccc(C(Cl)(Cl)Cl)cc1Cl"
  classification: "inactive"
- compound: "COC(=O)Nc1cccc(-c2nc3ccc(NC(=O)OC)cc3c(=O)n2-c2ccccc2)c1"
  classification: "inactive"
- compound: "Cn1cnc([N+](=O)[O-])c1S(=O)(=O)NCN1CCOCC1"
  classification: "inactive"
- compound: "CN(C)[C@@H]1C(=O)C(C(=O)NCN(CCCl)CCCl)=C(O)[C@@]2(O)C(=O)C3=C(O)c4c(O)cccc4[C@@](C)(O)[C@H]3C[C@@H]12"
  classification: "inactive"

---

Tested on: BDF1 mice, P388 leukemia ip, median survival T/C
Test: NCI In Vivo Anticancer Drug Screen. Data for tumor model P388 Leukemia (intraperitoneal) in B6D2F1 (BDF1) mice
Settings: endpoint: median survival time; dose: 400.0 mg/kg/injection; schedule: Q01DX009 (ip); vehicle: saline; higher = longer survival
Inconclusive results and toxic doses are left out.
Reported T/C values are given for each entry in this list.
parameter measured: T/C

- molecule: "CC(=O)c1c(C)cc(C(C)(C)C)cc1C"
  result: "109 % of control"
- molecule: "OCc1cccnc1"
  result: "108 % of control"
- molecule: "Cc1cc(NC(=O)Nc2ccc(C3=NCCCN3)cc2)ccc1NC(=O)Nc1ccc(C2=NCCCN2)cc1"
  result: "98 % of control"
- molecule: "O=C(N[C@@H](c1ccccc1)[C@H](N=Cc1ccccc1)c1ccccc1)c1ccccc1"
  result: "94 % of control"
- molecule: "[N-]=[N+]=NCC(=O)NCc1cnccn1"
  result: "119 % of control"
- molecule: "CN(CCO)/N=N/c1nc[nH]c1C(N)=O"
  result: "100 % of control"
- molecule: "BrC1C2C=CCC1CC2 (configuration not stated)"
  result: "104 % of control"
- molecule: "S=c1nc[nH]c2nc[nH]c12.[Ag]"
  result: "87 % of control"
- molecule: "CNC1C(OC2C(OC3C(O)C(O)C(O)C(O)C3O)OC(C)C2(O)CO)OC(CO)C(O)C1O (configuration not stated) (tested in a mixture with another compound)"
  result: "100 % of control"
- molecule: "CCC(=O)NC"
  result: "109 % of control"
- molecule: "CC(=O)OCc1cc2cc(O)ccc2nc1C"
  result: "91 % of control"
- molecule: "CN(C)C(=O)NNC(=O)N(C)C"
  result: "95 % of control"

Every entry's value here was drawn from PubChem BioAssay AID328.
